settings: buffer; pH 7.4; 200.0 µM
Recorded Metric: solubility kinetic (µg/mL)
Give just the numeric value; µg/mL need not be written.

In plain terms, O=C(O)C(=O)O.O=C(c1ccco1)N1CCN(Cc2ccccc2F)CC1 has a documented solubility kinetic of 33.9

In plain terms, COC(=O)c1cc(Cl)c(NC(=O)Cc2ccccc2)cc1OC has a documented solubility kinetic of 25.6

In plain terms, CCN(CC)C(=O)c1ccc(COc2ccccc2Cl)o1 has a documented solubility kinetic of 45.5

In plain terms, O=C1/C(=C/c2ccc([N+](=O)[O-])cc2)Oc2cc(O)ccc21 has a documented solubility kinetic of 6.1

In plain terms, CCC(C)NC(=O)c1cc2cc3ccc(OC)cc3nc2o1 (centres undefined) has a documented solubility kinetic of 30.4

In plain terms, O=C(NC1CCCC1)c1cccc(Cl)c1 has a documented solubility kinetic of 32.6

In plain terms, O=C(NCc1cccnc1)C12CC3CC(CC(Cl)(C3)C1)C2 has a documented solubility kinetic of 43.2

In plain terms, C/C=C/c1ccc(OCC(=O)NCc2ccccc2OC)c(OC)c1 has a documented solubility kinetic of 2.9

In plain terms, CN(CCC(=O)c1ccccc1)CCC(=O)c1ccccc1 has a documented solubility kinetic of 42.3

In plain terms, CCCCOc1ccc(C(=O)N2CCN(c3ncccn3)CC2)cc1 has a documented solubility kinetic of 12.2

In plain terms, Cc1cc(C)c(NC(=O)COC(=O)C2CCCCC2)c(C)c1 has a documented solubility kinetic of 5.6

In plain terms, Cc1ccnc(NS(=O)(=O)c2ccc(Cl)nc2)c1 has a documented solubility kinetic of 26.9

In plain terms, O=C(NCc1ccco1)/C(=C/c1ccccc1)NC(=O)c1ccco1 has a documented solubility kinetic of 42.4

In plain terms, COc1ccc2cc(C(=O)C3CCCN(Cc4cccc(C)n4)C3)ccc2c1 (centres undefined) has a documented solubility kinetic of 37.7
